- TARGET_SYSTEM: TRPA1 (Mus musculus, UniProt Q8BLA8)
- Construct: endogenous channel in mouse STC-1 cells
- Sequence (Q8BLA8 whole entry): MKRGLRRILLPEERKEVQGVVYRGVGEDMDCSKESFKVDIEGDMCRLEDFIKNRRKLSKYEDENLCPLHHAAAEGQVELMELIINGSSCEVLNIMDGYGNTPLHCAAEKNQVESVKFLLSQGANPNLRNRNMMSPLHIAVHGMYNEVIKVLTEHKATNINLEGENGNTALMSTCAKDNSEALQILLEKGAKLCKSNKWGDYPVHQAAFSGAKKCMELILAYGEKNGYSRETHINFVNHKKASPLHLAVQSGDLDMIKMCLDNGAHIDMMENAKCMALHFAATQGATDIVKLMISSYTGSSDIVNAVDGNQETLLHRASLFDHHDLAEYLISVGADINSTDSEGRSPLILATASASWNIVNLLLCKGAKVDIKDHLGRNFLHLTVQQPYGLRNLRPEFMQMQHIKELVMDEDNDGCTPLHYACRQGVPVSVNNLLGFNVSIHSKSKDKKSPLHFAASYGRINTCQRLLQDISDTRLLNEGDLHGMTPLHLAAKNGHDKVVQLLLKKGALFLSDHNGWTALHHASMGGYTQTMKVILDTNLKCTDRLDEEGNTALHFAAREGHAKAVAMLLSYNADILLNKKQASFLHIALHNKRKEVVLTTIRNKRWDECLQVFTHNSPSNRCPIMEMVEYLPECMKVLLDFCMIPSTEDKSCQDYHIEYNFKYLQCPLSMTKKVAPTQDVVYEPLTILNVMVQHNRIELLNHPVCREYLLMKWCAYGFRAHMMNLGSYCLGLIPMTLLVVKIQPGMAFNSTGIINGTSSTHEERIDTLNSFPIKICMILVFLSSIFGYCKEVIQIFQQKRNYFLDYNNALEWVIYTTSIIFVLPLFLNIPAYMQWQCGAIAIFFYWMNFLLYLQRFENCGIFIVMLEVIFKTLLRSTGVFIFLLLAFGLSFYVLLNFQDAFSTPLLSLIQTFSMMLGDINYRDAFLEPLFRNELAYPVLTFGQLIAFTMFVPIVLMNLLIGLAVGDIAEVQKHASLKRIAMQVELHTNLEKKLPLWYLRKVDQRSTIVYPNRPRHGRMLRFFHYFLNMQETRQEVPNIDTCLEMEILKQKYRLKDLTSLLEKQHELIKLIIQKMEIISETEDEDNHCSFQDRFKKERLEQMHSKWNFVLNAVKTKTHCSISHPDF
- ASSAY_EXPLANATION: fura-2 Ca2+ assay and whole-cell patch clamp in STC-1 cells; blocked by A967079 and HC030031
pEC50: −log10 of the molar value.
QUANTITY: pEC50

> print(dat)
                                   compound  test.result
1  CC1(C)c2c([nH]c3ccc(Cl)cc23)C2C=CC1C2 (racemic)        ~6.70

From: paper PMC4926213
